Cited source: ChEMBL document CHEMBL1132587

Biological target: 5-hydroxytryptamine receptor 2A (Rattus norvegicus)
For each of the compounds below, state its pIC50.
One number for each entry, as −log10 of the molar value.

As a guide, the following entries are already answered.
{"structure-smiles-string": "CNS(=O)(=O)Cc1ccc2[nH]cc(CCN3CC[C@@H](CNCc4ccccc4)C3)c2c1", "data-value": 5.24}
{"structure-smiles-string": "O=C1N[C@@H](Cc2ccc3[nH]cc(CCN4CC[C@@H](CNCc5ccccc5)C4)c3c2)CO1", "data-value": 5.52}

# context switch: different compound, same pIC50
Req: Please provide the recorded pIC50 for C[C@H](NC[C@@H]1CCN(CCc2c[nH]c3ccc(C[C@H]4COC(=O)N4)cc23)C1)c1ccccc1 , tested on 5-hydroxytryptamine receptor 2A (Rattus norvegicus).
Resp: 5.66

###

Target: 5-hydroxytryptamine receptor 1D (Homo sapiens, UniProt P28221)
Sequence (P28221 whole entry): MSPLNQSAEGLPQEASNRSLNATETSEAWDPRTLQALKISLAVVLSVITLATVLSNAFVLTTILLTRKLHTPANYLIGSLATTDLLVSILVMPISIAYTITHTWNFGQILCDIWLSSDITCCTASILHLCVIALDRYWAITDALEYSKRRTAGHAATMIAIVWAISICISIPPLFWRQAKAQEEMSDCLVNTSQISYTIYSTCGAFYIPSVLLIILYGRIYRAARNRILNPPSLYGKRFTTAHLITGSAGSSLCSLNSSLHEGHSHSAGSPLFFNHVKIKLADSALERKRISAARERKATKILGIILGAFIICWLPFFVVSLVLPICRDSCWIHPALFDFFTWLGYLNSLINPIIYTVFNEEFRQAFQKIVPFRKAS
Experiment: Stimulation of [35S]GTP-gamma-S, binding in CHO cells expressing the 5-hydroxytryptamine 1D receptor
Output: class label from EC50. Mapping: Low: < 2 nM; Medium: ≥ 2 nM and < 4 nM; High: ≥ 4 nM

{"structure-smiles-string": "CN(Cc1ccccc1)C[C@@H]1CCN(CCc2c[nH]c3ccc(C[C@H]4COC(=O)N4C)cc23)C1", "class-label": "Medium"}
{"structure-smiles-string": "C[C@H](NC[C@@H]1CCN(CCc2c[nH]c3ccc(C[C@H]4COC(=O)N4)cc23)C1)c1ccccc1", "class-label": "Low"}

Req: State the band of C[C@H](NC[C@@H]1CCN(CCc2c[nH]c3ccc(-n4cnnc4)cc23)C1)c1ccccc1
Resp: Low

Req: State the band of O=C1N[C@@H](Cc2ccc3[nH]cc(CCN4CC[C@@H](CNCc5ccccc5)C4)c3c2)CO1
Resp: Low

Req: State the band of CN(Cc1ccccc1)C[C@@H]1CCN(CCc2c[nH]c3ccc(-n4cnnc4)cc23)C1
Resp: Low

Req: State the band of c1coc(CNC[C@@H]2CCN(CCc3c[nH]c4ccc(-n5cnnc5)cc34)C2)c1
Resp: Medium

Req: State the band of c1cc(CNC[C@@H]2CCN(CCc3c[nH]c4ccc(-n5cnnc5)cc34)C2)ccn1
Resp: High

###

Molecular target: UniProt P08908
Sequence (P08908 whole entry): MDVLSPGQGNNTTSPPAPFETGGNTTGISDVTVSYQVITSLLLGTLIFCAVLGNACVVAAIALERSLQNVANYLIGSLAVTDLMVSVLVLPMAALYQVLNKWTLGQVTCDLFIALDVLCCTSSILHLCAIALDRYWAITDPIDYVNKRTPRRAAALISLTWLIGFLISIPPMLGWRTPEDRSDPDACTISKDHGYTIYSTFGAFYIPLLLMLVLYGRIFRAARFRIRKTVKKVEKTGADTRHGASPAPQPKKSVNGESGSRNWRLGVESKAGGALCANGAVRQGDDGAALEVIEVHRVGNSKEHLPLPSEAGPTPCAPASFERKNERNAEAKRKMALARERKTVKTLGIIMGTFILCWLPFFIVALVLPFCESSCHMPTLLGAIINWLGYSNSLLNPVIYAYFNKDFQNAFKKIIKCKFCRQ
parameter: IC50 (nM)
Answers are plain numbers, in nM.

As a guide, the following entries are already answered.
{"structure-smiles-string": "c1ccc(CNC[C@@H]2CCN(CCc3c[nH]c4ccc(-n5cnnc5)cc34)C2)cc1", "target-entity": "UniProt P08908", "IC50, nM": 5.4}
{"structure-smiles-string": "O=C1N[C@@H](Cc2ccc3[nH]cc(CCN4CC[C@@H](CNCc5ccccc5)C4)c3c2)CO1", "target-entity": "UniProt P08908", "IC50, nM": 17}
{"structure-smiles-string": "CNS(=O)(=O)Cc1ccc2[nH]cc(CCN3CC[C@@H](CNCc4ccccc4)C3)c2c1", "target-entity": "UniProt P08908", "IC50, nM": 41}

Req: Given C[C@H](NC[C@@H]1CCN(CCc2c[nH]c3ccc(C[C@H]4COC(=O)N4)cc23)C1)c1ccccc1 , state its recorded IC50.
Resp: 8.7

###

For each of the compounds below, state its IC50.
Target: UniProt P28222
Assay: Affinity of compound towards 5-hydroxytryptamine 1B receptor was evaluated using radioligand binding technique
Answers are plain numbers, in nM.

{"structure-smiles-string": "C[C@H](NC[C@@H]1CCN(CCc2c[nH]c3ccc(C[C@H]4COC(=O)N4)cc23)C1)c1ccccc1", "IC50 / nM": 50}
{"structure-smiles-string": "O=C1N[C@@H](Cc2ccc3[nH]cc(CCN4CC[C@@H](CNCc5ccccc5)C4)c3c2)CO1", "IC50 / nM": 49}

# context switch: different compound, same IC50
Req: Given CNS(=O)(=O)Cc1ccc2[nH]cc(CCN3CC[C@@H](CNCc4ccccc4)C3)c2c1 , state its recorded IC50.
Resp: 62

###

For each of the molecules below, state its log10 IC50.
Target: 5-hydroxytryptamine receptor 1B (Homo sapiens)
Sequence (P28222 whole entry): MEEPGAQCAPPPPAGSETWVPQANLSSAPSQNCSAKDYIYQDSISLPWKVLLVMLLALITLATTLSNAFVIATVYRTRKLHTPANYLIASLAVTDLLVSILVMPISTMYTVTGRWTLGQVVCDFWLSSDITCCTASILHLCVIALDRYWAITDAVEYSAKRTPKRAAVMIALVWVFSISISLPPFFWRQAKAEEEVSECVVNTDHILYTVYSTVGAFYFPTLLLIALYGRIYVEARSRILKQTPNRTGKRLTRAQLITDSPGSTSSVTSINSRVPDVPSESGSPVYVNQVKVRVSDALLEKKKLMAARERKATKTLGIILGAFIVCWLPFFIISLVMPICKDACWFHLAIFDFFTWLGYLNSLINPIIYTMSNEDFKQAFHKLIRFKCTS
Assay: Displacement of [3H]5-HT binding from the cloned human 5-hydroxytryptamine 1B receptor stably expressed in CHO cells
Format: cell-based
Give log10 of IC50, with IC50 taken in nM.

{"structure-smiles-string": "c1ccc(COC[C@@H]2CCN(CCCc3c[nH]c4ccc(-n5cnnc5)cc34)C2)cc1", "log10 IC50": 1.52}
{"structure-smiles-string": "c1ccc(NC[C@@H]2CCN(CCc3c[nH]c4ccc(-n5cnnc5)cc34)C2)cc1", "log10 IC50": 1.94}
{"structure-smiles-string": "c1cc2[nH]cc(CCN3CCC3)c2cc1-n1cnnc1", "log10 IC50": 0.64}
{"structure-smiles-string": "CN(Cc1ccccc1)C[C@@H]1CCN(CCc2c[nH]c3ccc(C[C@H]4COC(=O)N4C)cc23)C1", "log10 IC50": 1.84}
{"structure-smiles-string": "CN(Cc1ccccc1)C[C@@H]1CCN(CCCc2c[nH]c3ccc(-n4cnnc4)cc23)C1", "log10 IC50": 1.77}
{"structure-smiles-string": "CN(Cc1ccccc1)C[C@@H]1CCN(CCc2c[nH]c3ccc(-n4cnnc4)cc23)C1", "log10 IC50": 1.51}
{"structure-smiles-string": "c1ccc(CCNC[C@@H]2CCN(CCc3c[nH]c4ccc(-n5cnnc5)cc34)C2)cc1", "log10 IC50": 2.10}
{"structure-smiles-string": "c1cc2[nH]cc(CCN3CCCC3)c2cc1-n1cnnc1", "log10 IC50": 1.45}

Below are 6 molecules. Give each one its log10 IC50.
1. CN(Cc1ccccc1)C[C@@H]1CCN(CCc2c[nH]c3ccc(Cn4cncn4)cc23)C1
2. O[C@@H]1CCN(CCc2c[nH]c3ccc(-n4cnnc4)cc23)C1
3. CN(C)CCc1c[nH]c2ccc(-n3cnnc3)cc12
4. O=C1N[C@@H](Cc2ccc3[nH]cc(CCN4CC[C@@H](CNCc5ccccc5)C4)c3c2)CO1
5. CN(Cc1ccccc1)C[C@@H]1CCCN1CCc1c[nH]c2ccc(-n3cnnc3)cc12
6. OC[C@@H]1CCN(CCc2c[nH]c3ccc(-n4cnnc4)cc23)C1

Resp:
1. 2.76
2. 1.97
3. 0.11
4. 1.69
5. 1.18
6. 1.97

Below are 7 molecules. Give each one its log10 IC50.
1. C[C@@H](NC[C@@H]1CCN(CCc2c[nH]c3ccc(-n4cnnc4)cc23)C1)c1ccccc1
2. CC(=O)N(Cc1ccccc1)C[C@@H]1CCN(CCc2c[nH]c3ccc(-n4cnnc4)cc23)C1
3. C=CCNC[C@@H]1CCN(CCc2c[nH]c3ccc(-n4cnnc4)cc23)C1
4. C[C@H](NC[C@@H]1CCN(CCc2c[nH]c3ccc(Cn4cncn4)cc23)C1)c1ccccc1
5. c1ccc(COC[C@@H]2CCN(CCc3c[nH]c4ccc(-n5cnnc5)cc34)C2)cc1
6. CNS(=O)(=O)Cc1ccc2[nH]cc(CCN3CC[C@@H](CNCc4ccccc4)C3)c2c1
7. CC(=O)Nc1ccc(CNC[C@@H]2CCN(CCc3c[nH]c4ccc(-n5cnnc5)cc34)C2)cc1

Resp:
1: 1.87; 2: 1.04; 3: 2.51; 4: 2.48; 5: 1.93; 6: 1.79; 7: 2.22

Below are 3 molecules. Give each one its log10 IC50.
1. c1ccc(CNC[C@@H]2CCN(CCc3c[nH]c4ccc(-n5cnnc5)cc34)C2)nc1
2. C[C@H](NC[C@@H]1CCN(CCc2c[nH]c3ccc(-n4cnnc4)cc23)C1)c1ccccc1
3. c1ccc(COC[C@@H]2CCCN2CCc2c[nH]c3ccc(-n4cnnc4)cc23)cc1

Resp:
1.68
1.61
0.43

Below are 2 molecules. Give each one its log10 IC50.
1. C[C@@H](c1ccccc1)N(C)C[C@@H]1CCN(CCc2c[nH]c3ccc(Cn4cncn4)cc23)C1
2. CC(C)(NC[C@@H]1CCN(CCc2c[nH]c3ccc(-n4cnnc4)cc23)C1)c1ccccc1

Resp:
[1.94, 1.59]
